Values were extracted from patent US9682980B2.

target: human mGluR2 (Homo sapiens (Human))
Sequence (Q14416 19-872): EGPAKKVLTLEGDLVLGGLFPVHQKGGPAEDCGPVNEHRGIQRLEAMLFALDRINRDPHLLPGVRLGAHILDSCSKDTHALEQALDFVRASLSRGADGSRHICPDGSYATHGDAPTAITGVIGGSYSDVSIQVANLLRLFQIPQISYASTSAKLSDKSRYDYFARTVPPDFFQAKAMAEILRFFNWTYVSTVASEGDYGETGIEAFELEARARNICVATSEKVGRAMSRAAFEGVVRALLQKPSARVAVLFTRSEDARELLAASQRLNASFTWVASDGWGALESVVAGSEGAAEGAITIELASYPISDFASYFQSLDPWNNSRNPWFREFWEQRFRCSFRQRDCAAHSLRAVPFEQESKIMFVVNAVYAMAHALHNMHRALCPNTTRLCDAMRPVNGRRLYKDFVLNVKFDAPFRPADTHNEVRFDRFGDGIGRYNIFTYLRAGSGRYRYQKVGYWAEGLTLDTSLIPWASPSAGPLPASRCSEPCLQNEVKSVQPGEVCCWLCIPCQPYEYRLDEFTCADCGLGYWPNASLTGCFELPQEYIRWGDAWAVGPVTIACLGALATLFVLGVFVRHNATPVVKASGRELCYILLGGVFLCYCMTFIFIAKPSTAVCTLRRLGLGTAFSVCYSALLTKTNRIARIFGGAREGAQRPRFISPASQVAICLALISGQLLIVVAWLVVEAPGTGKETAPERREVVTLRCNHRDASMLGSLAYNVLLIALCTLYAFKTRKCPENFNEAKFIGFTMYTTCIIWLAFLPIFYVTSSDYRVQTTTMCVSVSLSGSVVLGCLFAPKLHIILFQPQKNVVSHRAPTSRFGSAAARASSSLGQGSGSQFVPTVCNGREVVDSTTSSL
experimental_details: MGluR2 cAMP assay
test_conditions: HEK293 cells clonally expressing human mGluR2, 1 μM forskolin, 1 μM LY-341495
quantity_name: EC50 (nM)

Sample records with EC50:
>  <compound>
COc1c(N2CCC(c3ccc(F)cc3)CC2)ncn2c(CC3CC3)nnc12 [Example 12]

>  <EC50, nM>
519

$$$$
>  <compound>
COc1cccc(C2CCN(c3cnn4c(CC5CC5)nnc4c3Cl)CC2)c1 [Example 28]

>  <EC50, nM>
38

$$$$

[a] Fc1ccc(C2CCN(c3cnn4c(CC5CC5)nnc4c3Cl)CC2)cc1 [Example 17]
[b] Fc1ccccc1C1CCN(c2ncn3c(CC4CC4)nnc3c2Cl)CC1 [Example 68]
Endpoint returns whichever of a and b has the numerically higher EC50. Returns: label corresponding to the selected item.
a

[1] Clc1cccc(C2CCN(c3cnn4c(CC5CC5)nnc4c3Cl)CC2)c1Cl [Example 46]
[2] FC(F)(F)Cc1nnc2c(Cl)c(N3CCC(c4ccccc4C(F)(F)F)CC3)cnn12 [Example 66]
Endpoint returns whichever of 1 and 2 has the numerically higher EC50. Returns: label corresponding to the selected item.
1

[I] Clc1c(NCC2(COc3ccccc3)CC2)cnn2c(CC3CC3)nnc12 [Example 21]
[II] FC(F)(F)Cc1nnc2c(Cl)c(N3CCC(c4cccc(Cl)c4Cl)CC3)cnn12 [Example 60]
[III] COc1ccc(C2CCN(c3cnn4c(CC5CC5)nnc4c3Cl)CC2)c(OC)c1 [Example 37]
Ascending by EC50, please. # answer = labels listed in requested order
III, II, I

====

target: human mGluR2 (Homo sapiens (Human))
experimental_details: MGluR2 cAMP assay
test_conditions: HEK293 cells clonally expressing human mGluR2, 1 μM forskolin, 1 μM LY-341495
quantity_name: EC50 (nM)

Sample records with EC50:
>  <compound_structure>
Clc1c(N2CCC(c3ccccc3)CC2)cnn2c(CC3CC3)nnc12

>  <EC50 / nM>
19

$$$$
>  <compound_structure>
N#Cc1ccccc1C1CCN(c2cnn3c(CC4CC4)nnc3c2C(F)(F)F)CC1

>  <EC50 / nM>
4

$$$$
>  <compound_structure>
FC(F)(F)Cc1nnc2c(Cl)c(N3CCC(c4cc(Cl)cc(Cl)c4)CC3)cnn12

>  <EC50 / nM>
263

$$$$

[I] Clc1c(N2CCC(c3cccnc3)CC2)cnn2c(CC3CC3)nnc12
[II] COC(=O)c1ccccc1C1CCN(c2cnn3c(CC(F)(F)F)nnc3c2Cl)CC1
[III] Fc1ccc(F)c(C2CCN(c3cnn4c(CC(F)(F)F)nnc4c3Cl)CC2)c1OC(F)F
[IV] Fc1cc(F)c(OC(F)F)c(C2CCN(c3cnn4c(CC5CC5)nnc4c3Cl)CC2)c1
Could you please sort these 4 entries by EC50 from high to low? # answer = labels listed in requested order
I, II, IV, III

[I] N#Cc1ccccc1C1CCN(c2cnn3c(CC(F)(F)F)nnc3c2Cl)CC1
[II] O=C1Oc2ccccc2C12CCN(c1cnn3c(CC(F)(F)F)nnc3c1Cl)CC2
Endpoint returns whichever of I and II has the numerically higher EC50. Returns: label corresponding to the selected item.
II
(II: 185 nM, I: 18 nM)

====

target: human mGluR2 (Homo sapiens (Human))
experimental_details: MGluR2 cAMP assay
test_conditions: HEK293 cells clonally expressing human mGluR2, 1 μM forskolin, 1 μM LY-341495
pEC50: −log10 of the molar value.
quantity_name: pEC50

[P] FC(F)(F)c1c(N2CCC(c3ccccc3)CC2)ncn2c(CC3CC3)nnc12 [Example 4]
[Q] Cc1ccccc1C1CCN(c2cnn3c(CC4CC4)nnc3c2Cl)CC1 [Example 29]
[R] Fc1cc(OC(F)F)c(C2CCN(c3cnn4c(CC5CC5)nnc4c3Cl)CC2)cc1F [Example 52]
I'd appreciate it if you could rank the compounds mentioned above by pEC50, largest value first. # answer = labels listed in requested order
R, Q, P

[P] COc1c(N2CCC(O)(c3ccc(F)cc3)CC2)ncn2c(CC3CC3)nnc12 [Example 14]
[Q] Fc1ccccc1C1CCN(c2ncn3c(CC(F)(F)F)nnc3c2Cl)CC1 [Example 67]
Hey, between P and Q which has a smaller measured pEC50? Returns: label corresponding to the selected item.
P
(P: 6.11, Q: 8.30)

[1] Fc1cc(F)c(OC(F)F)c(C2CCN(c3cnn4c(CC(F)(F)F)nnc4c3Cl)CC2)c1 [Example 55]
[2] Cc1c(N2CCC(c3ccccc3)CC2)ncn2c(CC3CC3)nnc12 [Example 2]
Endpoint returns whichever of 1 and 2 has the numerically higher pEC50. Returns: label corresponding to the selected item.
1

[A] Clc1c(N2CCC(c3ccccn3)CC2)cnn2c(CC3CC3)nnc12 [Example 79]
[B] COc1cccc(F)c1C1CCN(c2cnn3c(CC4CC4)nnc3c2C(F)(F)F)CC1 [Example 70]
[C] FC(F)(F)Cc1nnc2c(Cl)c(N3CCC(c4ccccc4Cl)CC3)cnn12 [Example 45]
[D] COc1ccc(C2CCN(c3cnn4c(CC(F)(F)F)nnc4c3Cl)CC2)c(OC)c1 [Example 38]
[E] COc1cc(OC)nc(C2CCN(c3cnn4c(CC(F)(F)F)nnc4c3Cl)CC2)n1 [Example 43]
Ascending by pEC50, please. # answer = labels listed in requested order
A, C, E, D, B
